Field: relative cleavage efficiency. Provide a value for each of the proteins that follow.
biological target: fusion protein PRA
Sequence (chain, as listed by the source): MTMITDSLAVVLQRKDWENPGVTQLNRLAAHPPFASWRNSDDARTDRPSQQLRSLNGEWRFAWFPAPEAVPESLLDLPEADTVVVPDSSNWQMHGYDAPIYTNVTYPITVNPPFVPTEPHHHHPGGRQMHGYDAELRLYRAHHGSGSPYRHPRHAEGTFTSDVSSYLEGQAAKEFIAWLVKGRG
Phrase the answer as number then unit, nothing more needed.

Challenge: Given the protein OmpT protease variant OmpT D97M (protein) STETLSFTPDNINADISLGTLSGKTKERVYLAEEGGRKVSQLDWKFNNAAIIKGAINWDLMPQISIGAAGWTTLGSRGGNMVDQDWMDSSNPGTWTMESRHPDTQLNYANEFDLNIKGWLLNEPNYRLGLMAGYQESRYSFTARGGSYIYSSEEGFRDDIGSFPNGERAIGYKQRFKMPYIGLTGSYRYEDFELGGTFKYSGWVESSDNDEHYDPGKRITYRSKVKDQNYYSVAVNAGYYVTPNAKVYVEGAWNRVTNKKGNTSLYDHNNNTSDYSKNGAGIENYNFITTAGLKYTF , what is its reported relative cleavage efficiency?
Response given: 6%

Challenge: Given the protein OmpT protease variant OmpT D97Q (protein) STETLSFTPDNINADISLGTLSGKTKERVYLAEEGGRKVSQLDWKFNNAAIIKGAINWDLMPQISIGAAGWTTLGSRGGNMVDQDWMDSSNPGTWTQESRHPDTQLNYANEFDLNIKGWLLNEPNYRLGLMAGYQESRYSFTARGGSYIYSSEEGFRDDIGSFPNGERAIGYKQRFKMPYIGLTGSYRYEDFELGGTFKYSGWVESSDNDEHYDPGKRITYRSKVKDQNYYSVAVNAGYYVTPNAKVYVEGAWNRVTNKKGNTSLYDHNNNTSDYSKNGAGIENYNFITTAGLKYTF , what is its reported relative cleavage efficiency?
Response given: 4%
